- Subject Of Test: OTU domain-containing protein 3 (Homo sapiens)
- Test Protocol: Validation of screening hits, potency titration, in vitro enzymatic, OTU domain-containing protein 3 DUB inhibitors (AID 1645868)
- Assay Context: purified OTUD3, ubiquitin-rhodamine cleavage fluorescence, 2 h
Active and inactive are the calls of the source.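 How the source made its calls: active means maximal percent inhibition of the deubiquitinase OTUD3 of at least 30% across the tested doses; inactive means the rest.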
Outcome (select one): 1 = active, -1 = inactive

INSERT INTO assay_data (compound, label) VALUES
  ('Cc1c(-c2nnc(-c3ccccn3)o2)nnn1-c1cccc(Cl)c1', 1),
  ('CS(=O)(=O)N1CCCc2cc(C(=O)Nc3ccc(Oc4ccccc4)cc3)ccc21', -1),
  ('Cc1nc(CN2CCn3c(Cn4cccn4)cnc3C2C)cs1 (stereo not given)', -1);

Which outcome did this test record for the compound CCOC(=O)c1sc2c(c1C)c(=O)n(Cc1ccccc1)c(=O)n2CC(N)=O ?
-1

Which outcome did this test record for the compound O=C(Nc1ccncc1)c1ncoc1-c1cccc(Cl)c1 ?
-1

Which outcome did this test record for the compound COc1ccc(C)cc1NC(=O)C(NS(=O)(=O)c1ccc2c(c1)CCN2C(C)=O)C(C)C (stereo not given) ?
-1

Which outcome did this test record for the compound O=C(Cc1noc2ccccc12)NCC(=O)Nc1ccc(Cl)cc1 ?
1
